- Tested on: SW-620 colon
- test-details: NCI tumour cell line growth inhibition, 48 h
# TGI values compiled below

Field: example entries. Status: answers known.
compound	measurement-target	TGI
Clc1ccc2nc(Cl)c3ccccc3c2c1	SW-620 colon	> 100 µM
C[N+]1([O-])[C@H]2CC(OC(=O)[C@H](CO)c3ccccc3)C[C@H]1[C@H]1O[C@H]12 (some centres undefined)	SW-620 colon	> 100 µM
COC1=CC(=O)c2nc3ccccc3c3ccnc1c23	SW-620 colon	35.1 µM
C[C@@]12C[C@@H](c3ccccc3O1)N1Cc3ccccc3CSC1=N2	SW-620 colon	> 100 µM
O=C(c1ccco1)c1nc2cc(C(F)(F)F)ccc2[n+]([O-])c1C(F)(F)F	SW-620 colon	> 100 µM

Returns the measured TGI for the input compound. Input: "NC(=O)c1sc(-n2cnc3ccc(C(F)(F)F)cc32)cc1OCc1ccccc1Br" > 25 µM

Returns the measured TGI for the input compound. Input: "CC(=O)OCCOCNC(=S)N/N=C(\C)c1cccs1" > 100 µM

Returns the measured TGI for the input compound. Input: "CCCC(=O)c1ccc(=O)n(C)c1" > 100 µM

Returns the measured TGI for the input compound. Input: C=C1CCC2C(C)(CO)C(O)CCC2(C)C1C/C=C1/CCOC1=O (centres undefined) > 100 µM

Returns the measured TGI for the input compound. Input: "CC(C)=CCC[C@@H](C)C1=CC(=O)C(C)=C(O)C1=O" 33.5 µM

Returns the measured TGI for the input compound. Input: "Cc1cn([C@@H]2C[C@H](CO)[C@@H]2O)c(=O)[nH]c1=O" > 100 µM

Returns the measured TGI for the input compound. Input: CC(=O)OCC1OC(n2c(N)c(C#N)c(-c3cccc(Cl)c3)c(C#N)c2=S)C(OC(C)=O)C(OC(C)=O)C1OC(C)=O (centres undefined) > 100 µM

* * *

- Tested on: 786-0 renal
- test-details: NCI tumour cell line growth inhibition, 48 h
If the reported TGI equals or exceeds 20 µM, assign Y. If not, assign N.

Consider the worked cases shown below.
>>> df
                                   molecule  answer_label
0  CCn1c(=O)c2c3ccc(OC)cc3[nH]c2c2ccc(OC)cc21             Y
1  O=C(c1ccccc1)c1c(C(F)(F)F)n([O-])c2cc(F)c(F)cc2[n+]1=O             N
2    Cc1ccc2c(=O)cc(Cc3csc4ccccc34)[nH]c2n1             Y
3  Nc1nc(-c2ccc(Cl)cc2)cc(-c2ccc(Cl)cc2)c1-c1nc2ccccc2o1             Y
4  O=C(CC(c1ccccc1)C(C(=O)c1ccncc1)C(CC(=O)c1ccncc1)c1ccccc1)c1ccncc1 (stereo not drawn)             Y
5  CN(C)C=NCC(O)c1ccccc1 (stereo not drawn)             Y
6  COC1C(CO)OC(n2c3c(Cl)cccc3c3c4c(c5c6cccc(Cl)c6[nH]c5c32)C(=O)NC4=O)C(O)C1O (stereo not drawn)             N
7  O=C(Nc1ccc(Nc2ccncc2)cc1)c1ccc(Nc2ccnc3ccc([N+](=O)[O-])cc23)cc1[N+](=O)[O-]             Y

Please tell me: is the molecule "O=C1c2cccnc2-c2nccc3c2c1nc1ccc(Br)cc13" at or over 20 µM in terms of TGI? N

Please tell me: is the molecule "O=C(Nc1ccc(Oc2ccc(NC(=O)Nc3ccc([N+](=O)[O-])cc3)cc2)cc1)Nc1ccc([N+](=O)[O-])cc1" at or over 20 µM in terms of TGI? Y

Please tell me: is the molecule "O=C1CCSC(=S)N1c1ccc(Br)c(Cl)c1" at or over 20 µM in terms of TGI? Y

* * *

- Test system: NCI-H460 lung
- test-details: NCI tumour cell line growth inhibition, 48 h
Where a SMILES comes first, the peptide text is derived from it. Side-chain parts run from the residue outwards. The star is where a group is joined. Cbz = O=C(OCc1ccccc1)*; Boc = CC(C)(C)OC(=O)*
quantity-measured: TGI

Field: example entries. Status: answers known.
compound	measurement-target	TGI
CCOC(=O)C(=O)Nc1ccccc1OCC	NCI-H460 lung	> 100 µM
CC(C)(C)OC(=O)NC(CCCCNC(=O)CNC(=O)OCc1ccccc1)C(=O)NC(CCCCNC(=O)CNC(=O)OCc1ccccc1)C(=O)NC(CCCCNC(=O)CNC(=O)OCc1ccccc1)C(=O)NC(CCCCNC(=O)CNC(=O)OCc1ccccc1)C(=O)O (centres undefined) (Boc-K([Gly-Cbz])K([Gly-Cbz])K([Gly-Cbz])K([Gly-Cbz])-OH; configuration not given here)	NCI-H460 lung	> 100 µM
Cc1cn([C@@H]2C[C@H](CO)[C@@H]2O)c(=O)[nH]c1=O	NCI-H460 lung	> 100 µM
C[C@]12CC[C@H](O)CC1=CC[C@@H]1[C@@H]2CC[C@]2(C)C(=O)/C(=C/c3ccc([N+](=O)[O-])cc3)C[C@@H]12	NCI-H460 lung	> 100 µM
O=C(N[C@H]1CCC[C@H]1C(=O)Nc1ccc(C(F)(F)F)cc1)OCc1ccccc1	NCI-H460 lung	> 100 µM
CCOC(=O)C(NC(=O)CC)(Nc1ccc(S(=O)(=O)Nc2ccc(OC)nn2)cc1)C(F)(F)F (centres undefined)	NCI-H460 lung	> 100 µM
CC1C(C#N)(C#N)C(C#N)=C(N)C1(C)[N+](=O)[O-] (centres undefined)	NCI-H460 lung	> 100 µM
O=C(/C=C/c1ccccc1O)c1cccc2ccccc12	NCI-H460 lung	> 100 µM

Returns the measured TGI for the input compound. Input: Cc1c2oc3c(C)cc(F)c(C(=O)NC4C(=O)NC(C(C)C)C(=O)N5CCCC5C(=O)N(C)CC(=O)N(C)C(C(C)C)C(=O)OC4C)c3nc-2c(C(=O)NC2C(=O)NC(C(C)C)C(=O)N3CCCC3C(=O)N(C)CC(=O)N(C)C(C(C)C)C(=O)OC2C)c(N)c1=O (centres undefined) 13.5 µM

Returns the measured TGI for the input compound. Input: CC1CCOc2ccc(cc2)C=Nc2ccc(cc2)-c2ccc(cc2)N=Cc2ccc(cc2)OCC1 (centres undefined) > 100 µM

Returns the measured TGI for the input compound. Input: COc1ccc(C2C(C#N)=C(S)N(C3OC(CO)C(O)C(O)C3O)C(C)=C2C(C)=O)cc1 (centres undefined) > 100 µM

Returns the measured TGI for the input compound. Input: "COc1ccc(N=Nc2c(-c3ccccc3)nn(C(=O)CC(=O)Nc3ccccc3Cl)c2-c2ccccc2)cc1" > 100 µM

Returns the measured TGI for the input compound. Input: COc1ccc(C2=NNC(c3cc4cc(Br)ccc4nc3Cl)C2)cc1 (centres undefined) > 25 µM

Returns the measured TGI for the input compound. Input: c1ccc2c(c1)Sc1ccccc1N2C1CN2CCC1CC2 (centres undefined) 33.4 µM

Returns the measured TGI for the input compound. Input: "CN(/N=C/c1ccc(Cl)cc1)C1=NCCCCN1" > 100 µM

Returns the measured TGI for the input compound. Input: CCCC(C)c1c(Cl)nc(Cl)nc1Cl (centres undefined) 45.6 µM

Returns the measured TGI for the input compound. Input: "CN(C)c1ccc2cc3ccc(N(C)C)cc3nc2c1" 1.99 µM

Returns the measured TGI for the input compound. Input: "O=C(Nc1ccc(Sc2ccc(N=Nc3c(O)c(S(=O)(=O)O)cc4cc(S(=O)(=O)O)ccc34)cc2)cc1)c1ccc(N=Nc2c(O)c(S(=O)(=O)O)cc3cc(S(=O)(=O)O)ccc23)cc1" 27.7 µM

Returns the measured TGI for the input compound. Input: "COc1ccc(/C=C\c2cc(OC)c(OC)c(OC)c2)cc1OCC(=O)Nc1nc2ccccc2s1" > 100 µM

Returns the measured TGI for the input compound. Input: CN(C(=O)C12C3C4C1C1C2C3C41C(O)C(C)(C)C)C(C)(C)C (centres undefined) > 100 µM

Returns the measured TGI for the input compound. Input: "S=C(N/N=C(\C(=N/NC(=S)N1CCCCC1)c1ccccn1)c1ccccn1)N1CCCCC1" > 100 µM

Returns the measured TGI for the input compound. Input: "Cc1ccc(C#CS(=O)(=O)C(F)(F)F)cc1" > 100 µM

Returns the measured TGI for the input compound. Input: "COc1cc2c(c(OC)c1OC)-c1ccc(SC)c(=O)cc1[C@@H](NC(=O)c1ccc([N+](=O)[O-])cc1)CC2" 0.0108 µM

Returns the measured TGI for the input compound. Input: "CC1=NN(C(=O)Cc2ccccc2)C(=O)/C1=C\c1ccccc1O" > 100 µM

Returns the measured TGI for the input compound. Input: "COc1ccc(/C=N\NC(=O)c2ccc3nc(-c4ccc(Cl)cc4)[nH]c3c2)cc1" 3.59 µM

Returns the measured TGI for the input compound. Input: "O=C(NO)c1ccc(Cn2c(=O)n(-c3ccccc3)c(=O)c3ccccc32)cc1" 9.19 µM

Returns the measured TGI for the input compound. Input: "O=c1[nH]c(=O)n(COCc2ccccc2)c2ccccc12" > 100 µM

Returns the measured TGI for the input compound. Input: "O=C(c1ccccc1O)c1cc(-c2ncc3c(=O)c4ccccc4oc3n2)c(-c2ccccc2O)[nH]c1=O" 60.9 µM

Returns the measured TGI for the input compound. Input: "NC1=Nc2ccccc2Sc2nc3ccccc3n21" > 100 µM
